System: LOC_OS02G17970-cb001;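 further: purified Escherichia coli-expressed rice kinase domain construct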
PROTOCOL: thermal shift delta Tm vs DMSO control; higher = stronger stabilization (binding)
ASSAY CONDITIONS: 12.5 µM; protein concentration 2 µM
PROPERTY: thermal shift delta Tm (°C)

INSERT INTO results (compound, measured) VALUES
  ('Cc1nc(NC(=O)N2CCC[C@H]2C(N)=O)sc1-c1ccnc(C(C)(C)C(F)(F)F)c1', 1.03),
  ('Cc1ccc(NC(=O)c2ccc(CN3CCN(C)CC3)cc2)cc1Nc1nc(-c2cccnc2)cs1', 0.55),
  ('C[C@@H](Oc1cc(-c2cnn(C3CCNCC3)c2)cnc1N)c1c(Cl)ccc(F)c1Cl', 0.54),
  ('CCC[C@H](NC(=O)/C(C#N)=C/c1cccc(Br)n1)c1ccccc1 [Degrasyn (WP1130)]', 4.33);

Recorded values, source the supplement of paper PMC9694430.
